All figures here come from PubChem BioAssay.

SYSTEM UNDER TEST: Neurogenic locus notch homolog protein 2 (Homo sapiens) (UniProt Q04721)
Sequence (Q04721 whole entry, looked up): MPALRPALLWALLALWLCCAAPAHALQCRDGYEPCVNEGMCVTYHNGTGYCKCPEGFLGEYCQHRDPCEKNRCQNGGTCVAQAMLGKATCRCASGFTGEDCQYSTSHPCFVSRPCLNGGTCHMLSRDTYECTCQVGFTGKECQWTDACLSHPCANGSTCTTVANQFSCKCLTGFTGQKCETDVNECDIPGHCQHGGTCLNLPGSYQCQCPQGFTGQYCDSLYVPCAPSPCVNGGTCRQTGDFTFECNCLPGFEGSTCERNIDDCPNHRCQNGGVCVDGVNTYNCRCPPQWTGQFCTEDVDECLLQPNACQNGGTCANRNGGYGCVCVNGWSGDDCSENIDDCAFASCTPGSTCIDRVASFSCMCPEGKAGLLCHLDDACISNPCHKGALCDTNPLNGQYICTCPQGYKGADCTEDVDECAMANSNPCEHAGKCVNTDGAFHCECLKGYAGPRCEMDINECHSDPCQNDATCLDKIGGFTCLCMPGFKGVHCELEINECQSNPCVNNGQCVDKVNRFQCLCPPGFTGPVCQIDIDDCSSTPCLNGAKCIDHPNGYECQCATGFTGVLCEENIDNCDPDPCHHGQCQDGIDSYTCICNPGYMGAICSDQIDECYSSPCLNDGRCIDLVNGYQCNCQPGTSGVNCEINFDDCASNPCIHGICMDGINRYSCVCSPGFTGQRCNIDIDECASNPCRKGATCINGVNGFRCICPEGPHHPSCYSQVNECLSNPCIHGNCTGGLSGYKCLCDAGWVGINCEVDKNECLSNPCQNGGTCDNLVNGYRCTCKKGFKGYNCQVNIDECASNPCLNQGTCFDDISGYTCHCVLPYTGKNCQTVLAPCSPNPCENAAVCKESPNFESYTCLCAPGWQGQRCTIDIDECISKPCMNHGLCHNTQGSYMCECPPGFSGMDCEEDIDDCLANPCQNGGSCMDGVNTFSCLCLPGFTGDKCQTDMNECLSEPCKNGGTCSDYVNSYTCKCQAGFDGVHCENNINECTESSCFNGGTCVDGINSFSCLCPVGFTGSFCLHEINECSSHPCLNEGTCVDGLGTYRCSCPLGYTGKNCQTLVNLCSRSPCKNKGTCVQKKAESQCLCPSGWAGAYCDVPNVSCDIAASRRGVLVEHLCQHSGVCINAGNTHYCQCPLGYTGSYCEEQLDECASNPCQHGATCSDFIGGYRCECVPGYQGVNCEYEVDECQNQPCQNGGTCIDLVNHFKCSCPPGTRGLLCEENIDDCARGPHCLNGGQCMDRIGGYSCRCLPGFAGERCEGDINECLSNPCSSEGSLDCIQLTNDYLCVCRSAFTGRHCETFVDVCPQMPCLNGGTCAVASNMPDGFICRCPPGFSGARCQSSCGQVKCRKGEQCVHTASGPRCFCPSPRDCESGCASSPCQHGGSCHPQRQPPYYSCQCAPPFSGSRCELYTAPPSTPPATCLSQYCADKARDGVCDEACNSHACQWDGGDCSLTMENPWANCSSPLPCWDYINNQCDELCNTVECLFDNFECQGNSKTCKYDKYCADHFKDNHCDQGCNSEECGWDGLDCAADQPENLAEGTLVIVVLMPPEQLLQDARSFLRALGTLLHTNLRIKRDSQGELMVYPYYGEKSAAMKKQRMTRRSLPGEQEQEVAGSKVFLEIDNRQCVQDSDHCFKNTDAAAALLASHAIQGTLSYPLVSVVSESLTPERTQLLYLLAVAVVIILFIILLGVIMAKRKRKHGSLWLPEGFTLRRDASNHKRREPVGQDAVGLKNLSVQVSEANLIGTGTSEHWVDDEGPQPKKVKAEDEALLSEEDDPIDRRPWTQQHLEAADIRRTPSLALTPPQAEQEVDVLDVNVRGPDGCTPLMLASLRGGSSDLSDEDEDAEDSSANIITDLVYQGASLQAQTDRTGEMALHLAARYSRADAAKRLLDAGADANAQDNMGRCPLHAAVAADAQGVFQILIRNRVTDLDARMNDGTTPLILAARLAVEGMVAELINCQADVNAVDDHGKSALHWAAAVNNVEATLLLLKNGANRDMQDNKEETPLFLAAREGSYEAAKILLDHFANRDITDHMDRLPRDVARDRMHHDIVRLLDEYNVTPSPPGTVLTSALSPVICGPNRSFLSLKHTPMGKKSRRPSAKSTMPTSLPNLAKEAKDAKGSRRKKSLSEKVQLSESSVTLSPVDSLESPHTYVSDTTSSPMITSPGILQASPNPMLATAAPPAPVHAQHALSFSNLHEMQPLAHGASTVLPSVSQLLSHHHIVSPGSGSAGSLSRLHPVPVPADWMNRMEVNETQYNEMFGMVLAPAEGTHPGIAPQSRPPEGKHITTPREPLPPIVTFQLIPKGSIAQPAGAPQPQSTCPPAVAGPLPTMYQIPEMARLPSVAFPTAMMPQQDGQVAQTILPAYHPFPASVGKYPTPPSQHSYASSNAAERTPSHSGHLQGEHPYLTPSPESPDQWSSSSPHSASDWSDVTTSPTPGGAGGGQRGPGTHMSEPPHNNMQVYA
PROTOCOL DETAILS: Notch2 binders on small-molecule microarrays, primary screen, biochemical, small-molecule microarray, 635 nm fluorescence, stem cell growth factors (AID 1073)
MEASUREMENT PARAMETERS: Notch2 binding, higher = more signal
Each entry below lists one item and its recorded composite z-score value.
Enter the number alone.

Exercise: Recorded composite z-score of CC(=O)OC[C@H]1O[C@H](C#CCCCc2ccccc2)C=C[C@@H]1OC(C)=O , please.
Key: 0.2

* * *

In this section we review reported z-score values for a set of compounds.
SYSTEM UNDER TEST: Homeobox protein Hox-A13 (Mus musculus) (UniProt Q62424)
Sequence (Q62424 whole entry, looked up): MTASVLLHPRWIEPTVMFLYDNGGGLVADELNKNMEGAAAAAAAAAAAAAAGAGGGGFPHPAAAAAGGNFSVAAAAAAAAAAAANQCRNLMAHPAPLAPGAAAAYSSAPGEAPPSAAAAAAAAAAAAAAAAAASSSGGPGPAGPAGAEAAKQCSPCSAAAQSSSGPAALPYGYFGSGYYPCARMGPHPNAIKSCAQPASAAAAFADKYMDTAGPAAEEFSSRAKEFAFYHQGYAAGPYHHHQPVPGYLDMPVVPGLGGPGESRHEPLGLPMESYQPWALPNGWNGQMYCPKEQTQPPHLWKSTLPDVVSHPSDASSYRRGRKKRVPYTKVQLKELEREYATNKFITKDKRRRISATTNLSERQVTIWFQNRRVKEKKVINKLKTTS
PROTOCOL DETAILS: inhibitors of HoxA13-DNA binding, primary screen, biochemical, fluorescence polarization, labeled oligonucleotide (AID 1185)
MEASUREMENT PARAMETERS: 15 min, higher = more signal, called active from +8 up or from −8 down
Provide a numeric answer; units are not to be included.

Sample answers from the record:
[
  {
    "COMPOUND": "O=C1[C@H]2[C@H]3[C@H](O)[C@H](O)CC(=NO[C@@H]4O[C@H](CO)[C@@H](O)[C@H](O)[C@H]4O)[C@@H]3CC[C@H]2C(=O)N1Cc1ccccc1",
    "READOUT LABEL": "z-score",
    "RECORDED VALUE": 0.638
  },
  {
    "COMPOUND": "O=C1[C@H]2[C@H]3[C@H](O)[C@H](O)CC(=NO[C@@H]4O[C@H](CO)[C@@H](O)[C@H](O)[C@H]4O)[C@H]3CC[C@H]2C(=O)N1C1CCCCC1",
    "READOUT LABEL": "z-score",
    "RECORDED VALUE": -4.7
  },
  {
    "COMPOUND": "CO[C@@H]1COC(=O)[C@@H]2CCCN2C(=O)[C@@H](C)COC(=O)[C@H](COCc2ccccc2)NC(=O)CC=C[C@H]1C",
    "READOUT LABEL": "z-score",
    "RECORDED VALUE": -0.767
  },
  {
    "COMPOUND": "CCOC(=O)C[C@H]1[C@H](OC(=O)c2ccc(C(=O)c3ccccc3)cc2)[C@@H](NC(=O)c2ccc(-c3ccccc3)cc2)c2cc(OCCCO)ccc2N1C(=O)c1ccc2ccccc2n1",
    "READOUT LABEL": "z-score",
    "RECORDED VALUE": -0.834
  },
  {
    "COMPOUND": "CCN1C(=O)[C@H]2[C@H]3[C@H](O)[C@H](O)CC(=NOCc4ccccc4)[C@@H]3CC[C@H]2C1=O",
    "READOUT LABEL": "z-score",
    "RECORDED VALUE": 0.697
  }
]

Exercise: # get_value(readout= z-score, system= Homeobox protein Hox-A13 (Mus musculus) (UniProt Q62424)) for CCOC(=O)CCN1C(=O)[C@H]2[C@H]3[C@H](O)[C@H](O)CC(=O)[C@H]3CC[C@H]2C1=O
Key: 0.804

Exercise: Consider next the compound CCOC(=O)[C@H](Cc1ccccc1)NC(=O)CCC1CC(OC(=O)NCc2ccc3c(c2)OCO3)CC2(CCCC(COC(=O)NCc3ccccc3)O2)O1 (some centres undefined) in the same way.
Key: -0.513

Exercise: Moving on to the next compound: O=C1C[C@@H](O)[C@@H](O)[C@@H]2[C@@H]3C(=O)N(c4cccc(Oc5ccccc5)c4)C(=O)[C@@H]3CC[C@@H]12
Key: -4.11

Exercise: And for C=CC[C@]1(C(=O)NCc2ccccc2)N=C(c2ccc(OCCCO)cc2)O[C@H]1c1ccccc1 ?
Key: -6.34

Exercise: Now consider COc1ccc(OC[C@H]2Cc3c(-c4ccccc4)nc4c(c3CO2)CN(CCOc2ccccc2)CC4)cc1 and answer again.
Key: -2.66

Exercise: Next entry: CCN1C(=O)[C@H]2[C@H]3[C@H](O)[C@H](O)CC(=NOCC=C(C)CCC=C(C)C)[C@H]3CC[C@H]2C1=O
Key: 0.0102

* * *

PROTOCOL DETAILS: binders of probe aFST on microarray, primary screen, stem cell growth factor project, biochemical, small-molecule microarray, fluorescence 635/667 (AID 1086);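 note: score merges 667 nm fluorescence with signal-to-noise of each printed compound spot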
MEASUREMENT PARAMETERS: higher = more signal
READOUT LABEL: composite z-score

In the examples that follow, each entry is paired with its recorded composite z-score.
[
  {
    "COMPOUND": "CC1CC/C=C\\[C@H]2OC34C=CCN(Cn5nnc6ccccc65)C(=O)[C@H]3N(CCO)C(=O)[C@@H]4C2C(=O)O1 (some centres undefined)",
    "READOUT LABEL": "composite z-score",
    "RECORDED VALUE": -0.655
  },
  {
    "COMPOUND": "CC(C)(C)OC(=O)CC[C@]1(C(=O)NCc2ccccc2)N=C(c2ccc(OCCCO)cc2)O[C@H]1c1ccccc1",
    "READOUT LABEL": "composite z-score",
    "RECORDED VALUE": 1.04
  },
  {
    "COMPOUND": "C[C@@H]1C=CCC(=O)OC[C@H](C)C(=O)N2CCC[C@H]2C(=O)OC1",
    "READOUT LABEL": "composite z-score",
    "RECORDED VALUE": 0.165
  }
]

Exercise: Consider the compound shown here: COC(=O)[C@H](C)NC(=O)CCC1CC(OC(=O)NCCc2ccc(F)cc2)CC2(CCCC(COC(=O)NCC(c3ccccc3)c3ccccc3)O2)O1 (some centres undefined) What is its recorded composite z-score?
Key: 0.107

Exercise: Then this compound: O=C1[C@H]2[C@H]3[C@H](O)[C@H](O)CC(=NOCc4ccccc4)[C@H]3CC[C@H]2C(=O)N1c1ccc(F)cc1F
Key: -0.314

Exercise: Entry CC(C)NC(=O)[C@@]1(C)c2ccccc2C(=O)N(Cc2cc(F)cc(C(F)(F)F)c2)[C@H]1c1ccc(CO)cc1 please
Key: 0.298

Exercise: How about this compound: C=C(CCCC)C(=O)CC[C@@H](OC(C)=O)c1cccc(OCCO)c1
Key: -0.507

Exercise: Follow-up entry: CCc1cccc(NC(=O)O[C@H]2[C@H](OC(=O)Nc3ccc4c(c3)OCO4)[C@@H](OC(=O)Nc3ccc4c(c3)OCO4)[C@@H](OC)O[C@@H]2CO)c1
Key: 0.507

Exercise: Moving on to the next compound: CC(=O)C[C@H](O)[C@@H](NC(=O)OC(C)(C)C)C(C)C
Key: -0.126

Exercise: # iterate: COC(=O)[C@@H]1CC[C@H](C)[C@@H](c2ccc(C)cc2)N1C(=O)c1ccc(C=NOC[C@@H](O)COCc2ccco2)cc1
Key: -0.72

Exercise: Param item: O=C1[C@H]2[C@H]3[C@H](O)[C@H](O)CC(=NO[C@@H]4O[C@H](CO)[C@@H](O)[C@H](O)[C@H]4O)[C@H]3CC[C@H]2C(=O)N1Cc1ccc2c(c1)OCO2
Key: 0.319

Exercise: Also, COc1ccc(-c2ccc3c(n2)CCCN3CC(O)CN2CCCc3nc(C)c(C)cc32)cc1 (centres undefined) please.
Key: 1.02

Exercise: Please do the same for COc1cccc([C@H]2Oc3ccc(OC)cc3C(=NO[C@H](C)c3cn([C@@H]4COC[C@H]4O)nn3)[C@@H]2O)c1 as well.
Key: -0.324

Exercise: Also need C/C=C\[C@@H](NCc1ccccc1Br)[C@@H](O)Cc1ccccc1 , thanks.
Key: -0.336

* * *

PROTOCOL DETAILS: small-molecule microarray binders of probe aDKK1, primary screen, biochemical, biotinylated probe, 635/667 nm fluorescence (AID 1099);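 note: score merges 667nm spot fluorescence with signal to noise across triplicate slides; reference of the scale not given here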
MEASUREMENT PARAMETERS: higher = more signal
READOUT LABEL: composite z-score
Write no unit; give the number alone.

Below are worked cases with known answers.
[
  {
    "MOLECULE": "COc1ccc([Si](C)(C)[C@@H]2[C@@H](CCO)O[C@]3(C(=O)N(Cc4ccc(NC(C)=O)cc4)c4ccccc43)[C@H]2C)cc1",
    "composite z-score": -0.173
  },
  {
    "MOLECULE": "CCN1C(=O)[C@H]2[C@H]3[C@H](O)C=CC(=O)[C@@H]3CC[C@H]2C1=O",
    "composite z-score": -0.094
  },
  {
    "MOLECULE": "O=C1[C@H]2[C@H]3[C@H](O)[C@H](O)CC(=NO[C@@H]4O[C@H](CO)[C@@H](O)[C@H](O)[C@H]4O)[C@@H]3CC[C@H]2C(=O)N1Cc1ccc2c(c1)OCO2",
    "composite z-score": -0.174
  },
  {
    "MOLECULE": "COC(=O)[C@H](C)NC(=O)CCC1CC(OC(=O)NCc2cccc3ccccc23)CC2(CCCC(COC(=O)NCC3CCCCC3)O2)O1 (some centres undefined)",
    "composite z-score": -0.0762
  },
  {
    "MOLECULE": "CCCCC(=C=CC[C@H](O)c1ccccc1OCCO)C[C@H](O)COCc1ccccc1",
    "composite z-score": -0.001
  },
  {
    "MOLECULE": "O=C1[C@H]2[C@H]3[C@H](O)[C@H](O)CC(=NOCc4ccccc4)[C@H]3CC[C@H]2C(=O)N1c1ccc(F)cc1F",
    "composite z-score": -0.268
  },
  {
    "MOLECULE": "C=CCC(OC(C)=O)[C@@H]1[C@@H](N(Cc2cc3ccccc3o2)C(=O)Cc2ccc(F)cc2)c2cc(OCCCO)ccc2N1C(=O)Cc1ccc(OC)cc1 (some centres undefined)",
    "composite z-score": -0.361
  },
  {
    "MOLECULE": "CCCC[C@@H](O)C1=C(C)C[C@H]2C(=O)N(Cc3ccccc3)C(=O)[C@H]2[C@H]1CO",
    "composite z-score": -0.407
  },
  {
    "MOLECULE": "CC(C)C[C@@H]1NC(=O)[C@H]2C[C@@H](C(=O)NCCCCCCN(C)C)[C@@H](c3cccc(OCCO)c3)N2C1=O",
    "composite z-score": 0.346
  },
  {
    "MOLECULE": "COC(=O)c1c(CC[C@@H](CO)NC(=O)N[C@H](Cc2ccccc2)Cn2cc(-c3ccccc3N)nn2)oc(C(C)=O)c1C(=O)OC",
    "composite z-score": 0.759
  }
]

Exercise: I would be grateful if you could share the reported composite z-score for O=C(CS)NCCCCCNC(=O)[C@H]1C[C@H]2C(=O)N3CCC[C@H]3C(=O)N2[C@H]1c1cccc(OCCO)c1 .
Key: 0.0187

Exercise: Would you mind doing C=C(/C(=C/C[C@H](OC(C)=O)c1ccc(OCCO)cc1)c1cnc2ccccc2c1)C(C)C as well?
Key: -0.523

Exercise: Next entry: CCOC(=O)NN=C1C[C@@H](O)[C@@H](O)[C@@H]2[C@@H]3C(=O)N(C(C)(C)C)C(=O)[C@@H]3CC[C@@H]12
Key: 0.166

Exercise: Input COC(=O)[C@@H]1CC[C@H](C)[C@@H](c2ccc(C)cc2)N1C(=O)c1ccc(C=NOC(C)CN2CCCCc3nc(C)c(C)cc32)cc1 (some centres undefined)
Key: -0.136
